# Test system: Klebsiella pneumoniae CCM 4415 (ATCC 10031)
# protocol-notes: Antibacterial microdilution broth (EUCAST), KP
# test-parameters: read after 24 h
The reader will find reported KP MIC values listed item by item below.
readout-type: KP MIC

{"columns": ["structure-notation", "tested-target", "readout-type", "measured"],
 "data": [
  ["O=c1[nH]c(-c2ccccc2)nc2nccnc12", "Klebsiella pneumoniae CCM 4415 (ATCC 10031)", "KP MIC", "> 125 µM"],
  ["NC(=O)c1nccnc1NC(=O)c1ccc(Br)cc1", "Klebsiella pneumoniae CCM 4415 (ATCC 10031)", "KP MIC", "> 500 µM"],
  ["COc1ccccc1C(=O)Nc1nccnc1C(N)=O", "Klebsiella pneumoniae CCM 4415 (ATCC 10031)", "KP MIC", "> 500 µM"],
  ["NC(=O)c1nccnc1NC(=O)c1cccc(Br)c1", "Klebsiella pneumoniae CCM 4415 (ATCC 10031)", "KP MIC", "> 125 µM"],
  ["NC(=O)c1nccnc1NC(=O)c1ccccc1F", "Klebsiella pneumoniae CCM 4415 (ATCC 10031)", "KP MIC", "> 500 µM"],
  ["O=c1[nH]c(-c2ccc(Cl)cc2)nc2nccnc12", "Klebsiella pneumoniae CCM 4415 (ATCC 10031)", "KP MIC", "> 125 µM"],
  ["NC(=O)c1nccnc1NC(=O)Cc1ccc(F)cc1", "Klebsiella pneumoniae CCM 4415 (ATCC 10031)", "KP MIC", "> 250 µM"],
  ["Cc1ccccc1C(=O)Nc1nccnc1C(N)=O", "Klebsiella pneumoniae CCM 4415 (ATCC 10031)", "KP MIC", "> 500 µM"],
  ["NC(=O)c1nccnc1NC(=O)c1ccccc1C(F)(F)F", "Klebsiella pneumoniae CCM 4415 (ATCC 10031)", "KP MIC", "> 500 µM"],
  ["CNC(=O)c1nccnc1NC(=O)c1ccc(Br)cc1", "Klebsiella pneumoniae CCM 4415 (ATCC 10031)", "KP MIC", "> 125 µM"]
]}

###

The reader will find reported melting point values listed item by item below.

{"columns": ["compound", "melting point"],
 "data": [
  ["NC(=O)c1nccnc1NC(=O)c1ccc([N+](=O)[O-])cc1 [Compound 21]", "> 300 °C"],
  ["NC(=O)c1nccnc1NC(=O)c1cccc(Br)c1 [Compound 17]", "255 to 256 °C"],
  ["NC(=O)c1nccnc1NC(=O)C1CCCCC1 [Compound 27]", "105.5 to 107 °C"],
  ["CCc1ccc(C(=O)Nc2nccnc2C(N)=O)cc1 [Compound 5]", "215.5 to 218.5 °C"],
  ["COC(=O)c1nccnc1NC(=O)c1cccc(Br)c1 [Compound 17e]", "123.3 to 125.2 °C"],
  ["CCCCCCCC(=O)Nc1nccnc1C(N)=O [Compound 32]", "127.9 to 129.3 °C"],
  ["NC(=O)c1nccnc1NC(=O)c1ccccc1F [Compound 10]", "211 to 213 °C"],
  ["Cc1cccc(C(=O)Nc2nccnc2C(N)=O)c1 [Compound 3]", "226.9 to 228.8 °C"],
  ["COC(=O)c1nccnc1NC(=O)c1ccccc1F [Compound 10e]", "123.2 to 125.4 °C"],
  ["COC(=O)c1nccnc1NC(=O)c1ccc(OC)cc1 [Compound 9e]", "144.5 to 145 °C"]
]}
